Where do the numbers come from? From PubChem BioAssay AID1063.

- Assay Name: Leishmania major promastigote growth inhibition, primary screen (AID 1063);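 note: promastigotes grown with compound for 44 hours at 28 °C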
- Reported Conditions: Leishmania major promastigotes, resazurin fluorescence viability; at 10 µM; hits give high values
Hit rate of the full screen: of about 200,000 compounds, about 18,000 (9%) were called active. The full list was thinned out, with actives kept by preference.

Molecule: CCN(CC(=O)Nc1ccc(Cl)c(S(=O)(=O)N(C)C)c1)Cc1nc2ccccc2c(=O)[nH]1
inhibition (%): -6.29

Molecule: NC(=O)c1ccccc1N(Cc1ccccc1)S(=O)(=O)c1ccccc1
inhibition (%): 2.81

Molecule: COc1ccc(N2C(=O)C(Cc3ccccc3)NC2=S)cc1 (stereo not given)
inhibition (%): -0.72

Molecule: O=C(CCN1C(=O)c2ccncc2C1=O)Nc1cc(F)ccc1F
inhibition (%): -6.67

Molecule: CCc1nc2oc3ccccc3c(=O)c2c(=O)n1Cc1ccc(OC)cc1
inhibition (%): 8.88

Molecule: COc1ccccc1N(C)S(=O)(=O)c1ccc(C(=O)N2CCC(C(N)=O)CC2)cc1
inhibition (%): 3.34

Molecule: CCC1CCCCN1C(=O)CSc1nc2c(c(=O)n(C)c(=O)n2C)n1C (stereo not given)
inhibition (%): -6.11

Molecule: Cc1ccc(-c2csc(NC(=O)c3cnccn3)n2)cc1C
inhibition (%): -7.05

Molecule: Cc1ccc(N2C(=O)SC(N(CC(=O)O)c3ccc(C)cc3)C2=O)cc1 (stereo not given)
inhibition (%): -0.34

Molecule: O=C(CCN1C(=O)c2ccccc2C1=O)Nc1cccc(F)c1
inhibition (%): 89.8

Molecule: Cc1ccc(NC(=O)CNCc2ccccn2)cc1S(=O)(=O)N(C)C
inhibition (%): 6.73

Molecule: CCOC(=O)CSc1nc(C)cc2c1C(=O)OC2
inhibition (%): 3.71

Molecule: O=C(CCc1nnc(CCCCc2ccccc2)o1)NC(c1cccnc1)C(F)(F)F (stereo not given)
inhibition (%): 11.3

Molecule: O=C(NCc1cccnc1)c1cccnc1Sc1ccc(Cl)cc1
inhibition (%): 84.6

Molecule: O=C(/C=C/c1cccs1)c1cc(Cl)ccc1OC(=O)N1CCOCC1
inhibition (%): 100

Molecule: C=CCNc1nnc(C)c2ccccc12
inhibition (%): 8

Molecule: O=[N+]([O-])c1ccc2[nH]c3c(c2c1)CCCC3O (stereo not given)
inhibition (%): -1.72

Molecule: O=C(CSc1nnc(Nc2ccccc2)s1)Nc1cccnc1Cl
inhibition (%): 66.3

Molecule: Cc1nnc(SCC(=O)NCc2ccccc2)s1
inhibition (%): -9.92

Molecule: CS(=O)(=O)N(Cc1ccccc1Cl)c1ccc(C(=O)NCc2cccnc2)cc1
inhibition (%): 1.77

Molecule: O=C(CCN1CCN(c2ccccc2)CC1)NNC(=S)Nc1ccccc1
inhibition (%): -9.65

Molecule: C=CCC1(CC=C)CCCN1C(=O)CC1C(=O)NCCN1Cc1ccccc1OC (stereo not given)
inhibition (%): 2.2

Molecule: O=C(Nc1ccccc1)O/N=C1\CCCCC1c1ccc([N+](=O)[O-])cc1[N+](=O)[O-] (stereo not given)
inhibition (%): 99.6

Molecule: COC(=O)C1=C(Nc2ccc(C)cc2)C=C(C)C(C(=O)OC)C1c1ccc(F)cc1 (stereo not given)
inhibition (%): 52.4

Molecule: O=C(c1cccc(S(=O)(=O)N2CCCC2)c1)N(Cc1ccco1)C1CCS(=O)(=O)C1 (stereo not given)
inhibition (%): -2.42

Molecule: Cc1ccc(S(=O)(=O)N(Cc2ccc(Cl)cc2)c2ccccc2C(=O)NCc2cccnc2)cc1
inhibition (%): 93.2

Molecule: CN(C)S(=O)(=O)c1cccc(NC(=O)COC(=O)/C=C/c2cccs2)c1
inhibition (%): -4.76

Molecule: CCOc1ccc(S(=O)(=O)Nc2nccs2)cc1
inhibition (%): -5.45

Molecule: O=C(c1ccncc1)N1CCN(c2ccc3ccccc3n2)CC1
inhibition (%): -1.56

Molecule: COC(=O)C1C(=O)NCC1c1ccc(C)cc1 (stereo not given)
inhibition (%): 6.72
